# Test system: Mycobacterium tuberculosis
# run.description: Antimycobacterial activity against isoniazid/rifampicin-resistant Mycobacterium tuberculosis by microplate Alamar Blue assay
# Assay type: functional
# note: exactly 2 µM is not below, so it is not fulfilled; use fulfilled for MIC strictly under it

// known answers, use as guide
O=C(N/N=C(/N=N/c1ccccc1[N+](=O)[O-])c1ccccc1)c1cc(O)c(O)c(O)c1	not fulfilled
O=C(N/N=C(/N=N/c1ccccc1Cl)c1ccccc1)c1cc(O)c(O)c(O)c1	not fulfilled
COc1ccc(/N=N/C(=N/NC(=O)c2cc(O)c(O)c(O)c2)c2ccccc2)cc1	fulfilled
O=C(N/N=C(/N=N/c1ccc(F)cc1)c1ccccc1)c1cc(O)c(O)c(O)c1	fulfilled

Shift focus to the following entry.
Ask | Strictly below 2 µM: is that where MIC of "Cc1ccccc1/N=N/C(=N/NC(=O)c1cc(O)c(O)c(O)c1)c1ccccc1" sits?
Reply | not fulfilled

###

# System: Mycobacterium tuberculosis
# run.description: Antimycobacterial activity against isoniazid/rifampicin-resistant Mycobacterium tuberculosis by microplate Alamar Blue assay
# Type: functional
assay.readout: MIC

CC(=O)NC[C@H]1CN(c2ccc(N3CCOCC3)c(F)c2)C(=O)O1	3.7 µM
O=C(N/N=C(/N=N/c1ccc(Cl)cc1Cl)c1ccccc1)c1cc(O)c(O)c(O)c1	0.33 µM
COc1ccccc1/N=N/C(=N/NC(=O)c1cc(O)c(O)c(O)c1)c1ccccc1	23.9 µM

Ask | Looking for the measured MIC of "O=C(N/N=C(/N=N/c1ccc([N+](=O)[O-])cc1)c1ccccc1)c1cc(O)c(O)c(O)c1" , can you help?
Reply | 2.85 µM

###

# System: Mycobacterium tuberculosis
# run.description: Antimycobacterial activity against isoniazid/rifampicin/kanamycin/streptomycin-resistant Mycobacterium tuberculosis by microplate Alamar Blue assay
# Assay type: functional
Activity calls are given as the source filed them. No cut-off for these calls is given here.
assay.readout: MIC

CC(=O)NC[C@H]1CN(c2ccc(N3CCOCC3)c(F)c2)C(=O)O1 [LINEZOLID]	2.78 µM
O=C(N/N=C(/N=N/c1ccccc1)c1ccccc1)c1cc(O)c(O)c(O)c1	inactive
O=C(N/N=C(/N=N/c1ccccc1[N+](=O)[O-])c1ccccc1)c1cc(O)c(O)c(O)c1	inactive
O=C(N/N=C(/N=N/c1ccccc1Cl)c1ccccc1)c1cc(O)c(O)c(O)c1	inactive
O=C(N/N=C(/N=N/c1ccc([N+](=O)[O-])cc1)c1ccccc1)c1cc(O)c(O)c(O)c1	22.3 µM

Ask | Looking for the measured MIC of "COc1ccc(/N=N/C(=N/NC(=O)c2cc(O)c(O)c(O)c2)c2ccccc2)cc1" , can you help?
Reply | 2.92 µM

Ask | Looking for the measured MIC of "Cc1ccccc1/N=N/C(=N/NC(=O)c1cc(O)c(O)c(O)c1)c1ccccc1" , can you help?
Reply | 16 µM

Ask | Looking for the measured MIC of "O=C(N/N=C(/N=N/c1ccc(F)cc1)c1ccccc1)c1cc(O)c(O)c(O)c1" , can you help?
Reply | 0.73 µM

Ask | Looking for the measured MIC of "O=C(N/N=C(/N=N/c1ccc(Cl)cc1Cl)c1ccccc1)c1cc(O)c(O)c(O)c1" , can you help?
Reply | 5.16 µM

Ask | Looking for the measured MIC of "COc1ccccc1/N=N/C(=N/NC(=O)c1cc(O)c(O)c(O)c1)c1ccccc1" , can you help?
Reply | inactive
